Source of measurements: the supplement of paper PMC10567573

B1: ZNF263 (parent)
chain: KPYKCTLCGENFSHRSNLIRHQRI

Variants of: B1
assay.info: protein stability index of a GFP-peptide fusion (GPS, HEK-293T) (PSI 1-6); higher = more stable;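 note: lentivirally expressed fusions sorted by FACS into six bins by GFP to DsRed ratio, PSI derived from sequencing read proportions per bin multiplied by bin number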
condition.parameters: c terminus: a fixed tail appended
Decide by protein stability index: equal to or exceeding 2 means 1, less means -1.

In [3]: df
Out[3]:
                              chain  answer_label
 0  KPYKCTLCGENFSHRSNLIRHERI [Q22E]            -1
 1  KPYKCTLCGENESHRSNLIRHQRI [F12E]            -1
 2   KPYKCTGCGENFSHRSNLIRHQRI [L7G]             1
 3   KHYKCTLCGENFSHRSNLIRHQRI [P2H]             1
 4   KPYKCTLPGENFSHRSNLIRHQRI [C8P]             1
 5   KPYKCTLVGENFSHRSNLIRHQRI [C8V]             1
 6  KPYKCTLCGENFSHRSNMIRHQRI [L18M]            -1
 7   KPYKWTLCGENFSHRSNLIRHQRI [C5W]            -1
 8  KPYKCTLCGENFSHRSNLIRNQRI [H21N]             1
 9   KPYKCTNCGENFSHRSNLIRHQRI [L7N]             1
10  KPYKCTLCGENFSHRSNLIRHQMI [R23M]             1
11   QPYKCTLCGENFSHRSNLIRHQRI [K1Q]             1
12  KPYKCTLCGENFSHRSNLISHQRI [R20S]            -1
13  KPYKCTLCGENFSNRSNLIRHQRI [H14N]             1
14  KPYKCTLCGENFSHRSNAIRHQRI [L18A]             1
15  KPYKCTLCGENFSHRTNLIRHQRI [S16T]            -1
16  KPYKCTLCGENFSHRSNLIRHMRI [Q22M]             1
17  KPYKCTLCGENFSHRSNLIRHQHI [R23H]             1
18  KPYKCTLCGENFSHRSNLIPHQRI [R20P]            -1
19  KPYKCTLCGENFSHRLNLIRHQRI [S16L]             1
20  KPYKCTLCGENFSHRSNKIRHQRI [L18K]             1
21  KPYKCTLCGENFSHRSNLKRHQRI [I19K]             1
22   KPYKDTLCGENFSHRSNLIRHQRI [C5D]             1
23   KPYKCTCCGENFSHRSNLIRHQRI [L7C]             1
24  KPYKCTLCGENFSSRSNLIRHQRI [H14S]             1
25   KPYKCTQCGENFSHRSNLIRHQRI [L7Q]             1
26  KPYKCTLCGENFSHRSNLIRHQRV [I24V]             1
27  KPYKCTLCGENFSHRSDLIRHQRI [N17D]             1
28  KPYKCTLCGENFSHRSNLIYHQRI [R20Y]            -1
29  KPYKCTLCGENHSHRSNLIRHQRI [F12H]             1
30   KPFKCTLCGENFSHRSNLIRHQRI [Y3F]             1
31  KPYKCTLCGENFSHRSNLARHQRI [I19A]             1
32  KPYKCTLCGENFSHRSNLIRYQRI [H21Y]             1
33  KPYKCTLCGENFSHRSNLNRHQRI [I19N]            -1
34  KPYKCTLCGENFSHRSNLIRHQRS [I24S]             1
35  KPYKCTLCGENFSHRSMLIRHQRI [N17M]             1
36  KPYKCTLCGECFSHRSNLIRHQRI [N11C]             1
37  KPYKCTLCGENFSHRSNLIRHNRI [Q22N]             1
38  KPYKCTLCGENFSHRENLIRHQRI [S16E]             1
39   KPYKCTHCGENFSHRSNLIRHQRI [L7H]             1
40  KPYKCTLCGENFSHRSNLIRHQRL [I24L]             1
41  KPYKCTLCGENFSHRSNLIRHKRI [Q22K]             1
42   KPYKCTLWGENFSHRSNLIRHQRI [C8W]            -1
43   KPYKCKLCGENFSHRSNLIRHQRI [T6K]             1
44  KPYKCTLCGENFHHRSNLIRHQRI [S13H]             1
45   KPYKCMLCGENFSHRSNLIRHQRI [T6M]             1
46  KPYKCTLCGENFSHRSNLIFHQRI [R20F]             1
47   KYYKCTLCGENFSHRSNLIRHQRI [P2Y]             1
48   KPYNCTLCGENFSHRSNLIRHQRI [K4N]            -1
49   KPYKCTLCSENFSHRSNLIRHQRI [G9S]             1
50   KPYKCTLCWENFSHRSNLIRHQRI [G9W]            -1
51  KPYKCTLCGENFSHRSNLIRHQRG [I24G]             1
52  KPYKCTLCGENFSHRSELIRHQRI [N17E]             1
53   KPYKHTLCGENFSHRSNLIRHQRI [C5H]             1
54   KVYKCTLCGENFSHRSNLIRHQRI [P2V]             1
55  KPYKCTLCGENFSHRSYLIRHQRI [N17Y]             1
56  KPYKCTLCGGNFSHRSNLIRHQRI [E10G]             1
57   KPYKVTLCGENFSHRSNLIRHQRI [C5V]             1
58  KPYKCTLCGENFSHRSNHIRHQRI [L18H]             1
59   IPYKCTLCGENFSHRSNLIRHQRI [K1I]             1
60   FPYKCTLCGENFSHRSNLIRHQRI [K1F]             1
61   KPYKCWLCGENFSHRSNLIRHQRI [T6W]             1
62  KPYKCTLCGEVFSHRSNLIRHQRI [N11V]             1
63  KPYKCTLCGENFSHRSNLIRIQRI [H21I]            -1
64  KPYKCTLCGENGSHRSNLIRHQRI [F12G]            -1
65   KPYKCTLKGENFSHRSNLIRHQRI [C8K]             1
66  KPYKCTLCGENFSHRSNLCRHQRI [I19C]             1
67  KPYKCTLCGENFSHRSNLIRGQRI [H21G]            -1
68  KPYKCTLCGENFSHRSNLIGHQRI [R20G]             1
69  KPYKCTLCGENFSHRSNLICHQRI [R20C]             1
70  KPYKCTLCGENFSHRSLLIRHQRI [N17L]             1
71  KPYKCTLCGENFSHRSNLIRHQRA [I24A]             1
72   KPYKCTSCGENFSHRSNLIRHQRI [L7S]             1
73   KPMKCTLCGENFSHRSNLIRHQRI [Y3M]            -1
74  KPYKCTLCGENFSIRSNLIRHQRI [H14I]             1
75   KEYKCTLCGENFSHRSNLIRHQRI [P2E]             1
76  KPYKCTLCGENFSARSNLIRHQRI [H14A]             1
77  KPYKCTLCGENFSHRSNLIRHHRI [Q22H]             1
78   KPYKCLLCGENFSHRSNLIRHQRI [T6L]             1
79  KPYKCTLCGENFSHASNLIRHQRI [R15A]             1
80   KPYKCTLFGENFSHRSNLIRHQRI [C8F]             1
81  KPYKCTLCGENFSHRSNLIIHQRI [R20I]            -1
82  KPYKCTLCGENFSHRPNLIRHQRI [S16P]            -1
83  KPYKCTLCGENFSHRSRLIRHQRI [N17R]             1
84   KPYKQTLCGENFSHRSNLIRHQRI [C5Q]             1
85   KPDKCTLCGENFSHRSNLIRHQRI [Y3D]            -1
86   KFYKCTLCGENFSHRSNLIRHQRI [P2F]             1
87   KPYKCTRCGENFSHRSNLIRHQRI [L7R]             1
88  KPYKCTLCGENFNHRSNLIRHQRI [S13N]             1
